# EXPERIMENT SUMMARY: Rat brain fraction unbound
# Format: in vitro ADME
# PROTOCOL CONDITIONS: read-out: Rat Fu Brain
MEASURED ENDPOINT: fraction unbound
Write no unit; give the number alone.

Prompt line: State its fraction unbound for this molecule: `c1cnc2c(Nc3ccc4c(O[C@@H]5CCCOC5)nccc4c3)n[nH]c2c1`
Response line: 0.004

Prompt line: State its fraction unbound for this molecule: `CO[C@H](C)COc1nccc2cc(Nc3n[nH]c4nccnc34)ccc12`
Response line: 0.008

Prompt line: State its fraction unbound for this molecule: c1cnc2[nH]nc(Nc3ccc4c(OCC5CCOC5)nccc4c3)c2c1 (centres unmarked)
Response line: 0.002

Prompt line: State its fraction unbound for this molecule: c1cnc2c(Nc3ccc4c(OCC5CCCOC5)nccc4c3)n[nH]c2c1 (centres unmarked)
Response line: 0.002

Prompt line: State its fraction unbound for this molecule: `c1cnc2c(Nc3ccc4c(OC5CCOCC5)nccc4c3)n[nH]c2c1`
Response line: 0.008
